Biological target: T1, CRBN, Q96SW2;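 note: pooled lentiviral library of zinc finger degron-EGFP fusions in mCherry-positive Jurkat cells, FACS-sorted after compound exposure, with degron abundance counted by next-generation sequencing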
T1 chain: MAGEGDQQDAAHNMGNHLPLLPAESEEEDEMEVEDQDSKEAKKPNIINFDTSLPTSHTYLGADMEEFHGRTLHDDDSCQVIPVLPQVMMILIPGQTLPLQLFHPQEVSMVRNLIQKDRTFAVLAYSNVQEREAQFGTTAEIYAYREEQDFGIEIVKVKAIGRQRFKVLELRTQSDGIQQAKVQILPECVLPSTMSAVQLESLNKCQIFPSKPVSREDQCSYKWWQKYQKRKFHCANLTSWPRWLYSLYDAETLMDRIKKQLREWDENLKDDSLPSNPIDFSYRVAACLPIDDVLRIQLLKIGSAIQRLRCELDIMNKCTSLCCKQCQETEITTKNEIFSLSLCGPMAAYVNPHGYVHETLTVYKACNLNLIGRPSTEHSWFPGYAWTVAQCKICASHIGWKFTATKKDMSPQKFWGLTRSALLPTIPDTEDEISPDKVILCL
Assay: log2 fold change of degron read counts, EGFP-low vs EGFP+ sorted cells (limma voom), compound-induced degradation; higher = more compound-induced degradation of the degron-EGFP fusion; degrons are variants of IKZF1/3 zinc finger 2; compound dose not given here
Conditions: Jurkat; 18 h; compound: compound 22 (5-morpholino-thalidomide)
Whole data set: some 8,300 sequences, median “log2 fold change of degron read counts, EGFP-low vs EGFP+ sorted cells (limma voom), compound-induced degradation” near -1.1, cut for the highest 2% near 3.2. Many of the other results were omitted from the sample, so the highest values are more common in it than they were.
Param threshold (-0.6) applies to log2 fold change of degron read counts; output true when value >= threshold, false when value < threshold.

These solved cases illustrate the format of a correct answer.
> print(dat)
                                biosequence  assigned.class
1  FHCPICGHHFTQKGNLLRHIKL [46F_47H_49P_50I_52G_53H_54H_55F_67L_, Q9UKT9]           false
2  LACEICGFHCTQKGNLLRHIKL [46L_47A_49E_50I_52G_53F_54H_55C_67L_, Q9UKT9]            true
3  FDCNICGARFTQKGNLLRHIKL [46F_47D_49N_50I_52G_53A_54R_55F_67L_, Q9UKT9]            true

Threshold query (log2 fold change of degron read counts >= -0.6) on FTCPICGREFTQKGNLLRHIKL [46F_47T_49P_50I_52G_53R_54E_55F_67L_, Q9UKT9] false

Repeat for the following sequence: FVCNQCGATFTQKGNLLRHIKL [46F_47V_49N_50Q_52G_53A_54T_55F_67L_, Q9UKT9] false

What about this sequence? LYCNQCGFYCTQKGNLLRHIKL [46L_47Y_49N_50Q_52G_53F_54Y_55C_67L_, Q9UKT9] false

Then FCCNQCGRTFTQKGNLLRHIKL [46F_47C_49N_50Q_52G_53R_54T_55F_67L_, Q9UKT9] ? false
